Data provenance is ChEMBL document CHEMBL1649560.

test system: Campylobacter jejuni; assay: Antibacterial activity against bla gene-positive and nitrocefin reaction-positive beta-lactamase harboring Campylobacter jejuni isolate P338 by NCCLS agar doubling dilution method; type: functional
Strictly below 8 µg/mL in MIC: rule met. Otherwise: rule not met.

INSERT INTO measurements (molecule, answer_label) VALUES
  ('CC1(C)S[C@@H]2[C@H](NC(=O)[C@H](N)c3ccccc3)C(=O)N2[C@H]1C(=O)O', 'rule not met'),
  ('CCN1CCN(C(=O)N[C@@H](C(=O)N[C@@H]2C(=O)N3[C@@H]2SC(C)(C)[C@@H]3C(=O)O)c2ccccc2)C(=O)C1=O', 'rule not met'),
  ('CO[C@@]1(NC(=O)Cc2cccs2)C(=O)N2C(C(=O)O)=C(COC(N)=O)CS[C@@H]21', 'rule not met'),
  ('C[C@@H](O)[C@H]1C(=O)N2C(C(=O)O)=C(S[C@@H]3CN[C@H](C(=O)N(C)C)C3)[C@H](C)[C@H]12', 'rule met'),
  ('C[C@@H](O)[C@H]1C(=O)N2C(C(=O)O)=C(SCCNC=N)C[C@H]12 [IMIPENEM ANHYDROUS]', 'rule met'),
  ('CO/N=C(\C(=O)N[C@@H]1C(=O)N2C(C(=O)O)=C(COC(N)=O)CS[C@H]12)c1ccco1', 'rule not met'),
  ('CC1(C)S[C@@H]2[C@H](NC(=O)[C@H](C(=O)O)c3ccsc3)C(=O)N2[C@H]1C(=O)O', 'rule not met');

Switching to the query record.
Is the reported MIC for "Cc1onc(-c2ccccc2Cl)c1C(=O)N[C@@H]1C(=O)N2[C@@H]1SC(C)(C)[C@@H]2C(=O)O" strictly below 8 µg/mL?
rule not met

----------
Catalogue of MIC values
test system: Campylobacter coli; experiment: Antibacterial activity against bla gene-positive and nitrocefin reaction-positive beta-lactamase harboring Campylobacter coli isolate P321 by NCCLS agar doubling dilution method; format: functional
Dear colleague, please return just the value in µg/mL, with no unit written.

Past entries and their recorded results:
INSERT INTO results (compound, metric_name, reported_measurement) VALUES
  ('CC1(C)S[C@@H]2[C@H](NC(=O)C(C(=O)O)c3ccccc3)C(=O)N2[C@H]1C(=O)O (some centres undefined)', 'MIC', 256),
  ('CO[C@@]1(NC(=O)Cc2cccs2)C(=O)N2C(C(=O)O)=C(COC(N)=O)CS[C@@H]21', 'MIC', 64);

Moving on to another compound below.
If you can, please state the reported MIC value of "CO/N=C(\C(=O)N[C@@H]1C(=O)N2C(C(=O)O)=C(COC(N)=O)CS[C@H]12)c1ccco1" .
64

----------
tested on: Campylobacter jejuni; assay: Antibacterial activity against bla gene-positive and nitrocefin reaction-positive beta-lactamase harboring Campylobacter jejuni isolate P286 by NCCLS agar doubling dilution method; type: functional
Catalogue of MIC values
Dear colleague, please return just the value in µg/mL, with no unit written.

INSERT INTO measurements (compound, unit_abbrev, reported_measurement) VALUES
  ('CO/N=C(\C(=O)N[C@@H]1C(=O)N2C(C(=O)O)=C(COC(N)=O)CS[C@H]12)c1ccco1', 'µg/mL', 128),
  ('CC1(C)S[C@@H]2[C@H](NC(=O)[C@H](N)c3ccc(O)cc3)C(=O)N2[C@H]1C(=O)O', 'µg/mL', 64),
  ('CC1(C)S[C@@H]2[C@H](NC(=O)[C@H](C(=O)O)c3ccsc3)C(=O)N2[C@H]1C(=O)O', 'µg/mL', 64),
  ('C[C@@H](O)[C@H]1C(=O)N2C(C(=O)O)=C(SCCNC=N)C[C@H]12 [IMIPENEM ANHYDROUS]', 'µg/mL', 0.25),
  ('CO[C@@]1(NC(=O)Cc2cccs2)C(=O)N2C(C(=O)O)=C(COC(N)=O)CS[C@@H]21', 'µg/mL', 256),
  ('CC1(C)S[C@@H]2[C@H](NC(=O)[C@H](N)c3ccccc3)C(=O)N2[C@H]1C(=O)O', 'µg/mL', 64);

Moving on to another compound below.
If you can, please state the reported MIC value of "C[C@@H](O)[C@H]1C(=O)N2C(C(=O)O)=C(S[C@@H]3CN[C@H](C(=O)N(C)C)C3)[C@H](C)[C@H]12" .
0.25
